Origin of values: ChEMBL document CHEMBL1201862

tested on: SF-295; test: NCI tumour cell line growth inhibition, 48 h
Activity calls are given as the source filed them. Cut-off read from the data, not from the text of the source: active = GI50 up to about 1.1 µM and inactive = higher.
For each record, write down the corresponding GI50.

Requested read-out: GI50. Entry: CCN1CCCc2cc3c(C(F)(F)F)cc(=O)oc3cc21
63.4 µM (inactive)

# input compound: Nc1nc(Cl)cc(NCC2(CO)CCC(OCc3ccccc3)C2)n1 (stereo unspecified) ; wanted: its GI50
31 µM (inactive)

Any idea what GI50 was measured for CC(C)c1nccn1Cc1ccc(Cl)cc1Cl ?
14.5 µM (inactive)

Entry under review: COc1cc(C=O)cc(/C=N/c2ccc(S(N)(=O)=O)cc2)c1O . Reported GI50?
3.64 µM (inactive)

GI50 for COc1ccc(C2c3cc4c(cc3OC(N3CCOCC3)C2C)OCO4)cc1OC (stereo unspecified) ?
4.39 µM (inactive)

Need GI50 of CCCN(CCCN)/[N+]([O-])=N\O , thanks.
> 100 µM (inactive)

# get_value(readout='GI50', item= COc1ccc(NC(=O)CC(=O)N/N=C/c2ccc(N(CCC#N)S(C)(=O)=O)cc2)cc1 )
> 100 µM (inactive)

Look up GI50: CCOC(=O)N/N=C(/N)Cc1ccccc1
> 100 µM (inactive)

What GI50 value was documented for this compound, COC1OC(C)C(O)CC1OS(=O)(=O)c1ccc(C)cc1 (stereo unspecified) ?
> 100 µM (inactive)

Bench note: what GI50 did CCOc1cc(NC(C)=O)ccc1C(=O)NN1C(=O)C(Cl)C1c1ccc(O)c(OC)c1 (stereo unspecified) show?
21.3 µM (inactive)

Requested field: GI50. Item: CCC1(CC)C(=O)N(C(=O)c2ccc(Cl)cc2)N(C(=O)c2ccccc2Cl)C1=O
63.5 µM (inactive)

----------
system: IGROV-1; assay: NCI tumour cell line growth inhibition, 48 h
The source made the active and inactive calls. Rule as the data show it: active = GI50 up to about 1.1 µM and inactive = higher.
Value Kind: GI50

Recorded GI50 of COC1(OC)C(N(C)C)=C(Cl)C(=O)/C1=C/C=O , please.
> 100 µM (inactive)

State the recorded GI50 for this entry: CN(C)/C=N/CC(O)c1ccccc1 (stereo unspecified)
> 100 µM (inactive)

// query GI50 value for entry Oc1nc(CC(O)c2ccc(Cl)c(Cl)c2)cc(-c2ccccc2)n1 (stereo unspecified)
> 100 µM (inactive)

Which GI50 reading was recorded for the compound CCOC(=O)CCC(NC(=O)c1ccc(NCc2ccc3nc(-c4ccccc4)c(Cl)nc3c2)cc1)C(=O)OCC (stereo unspecified) ?
27.9 µM (inactive)

Look at this compound and give its reported GI50. O=C(NS(=O)(=O)OCC(Cl)(Cl)Cl)SCCC(F)(F)C(F)(F)C(F)(F)C(F)(F)C(F)(F)C(F)(F)F
37.4 µM (inactive)

May I ask what GI50 has been recorded for Nc1ccn(C2(CO)C=C(CO)C(O)C2O)c(=O)n1 (stereo unspecified) ?
> 25.8 µM (inactive)

Quick one: GI50 of CC(C)=CCc1c(O)c(CC=C(C)C)c2oc(-c3ccc(O)cc3O)c(CC=C(C)C)c(=O)c2c1O ?
10.6 µM (inactive)

Item C/C(=N\N=C(/S)N1CCCCCC1)c1cccc[n+]1[O-] has what recorded GI50?
1.91 µM (inactive)

What GI50 value was documented for this compound, Cc1cc(O)nc(NNC(C#N)c2ccc(O)cc2)n1 (stereo unspecified) ?
> 100 µM (inactive)

Reported GI50 for CCOC(=O)C1C2CCC1CC(=NNc1ccc([N+](=O)[O-])cc1[N+](=O)[O-])C2 (stereo unspecified) : what is it?
> 50 µM (inactive)

What does the record list as GI50 for CNC1CC(n2cc(C)c(=O)[nH]c2=O)OC1CO (stereo unspecified) ?
> 100 µM (inactive)
